Target: CYP3A4 (Homo sapiens (Human), UniProt P08684)
Sequence (P08684 whole entry): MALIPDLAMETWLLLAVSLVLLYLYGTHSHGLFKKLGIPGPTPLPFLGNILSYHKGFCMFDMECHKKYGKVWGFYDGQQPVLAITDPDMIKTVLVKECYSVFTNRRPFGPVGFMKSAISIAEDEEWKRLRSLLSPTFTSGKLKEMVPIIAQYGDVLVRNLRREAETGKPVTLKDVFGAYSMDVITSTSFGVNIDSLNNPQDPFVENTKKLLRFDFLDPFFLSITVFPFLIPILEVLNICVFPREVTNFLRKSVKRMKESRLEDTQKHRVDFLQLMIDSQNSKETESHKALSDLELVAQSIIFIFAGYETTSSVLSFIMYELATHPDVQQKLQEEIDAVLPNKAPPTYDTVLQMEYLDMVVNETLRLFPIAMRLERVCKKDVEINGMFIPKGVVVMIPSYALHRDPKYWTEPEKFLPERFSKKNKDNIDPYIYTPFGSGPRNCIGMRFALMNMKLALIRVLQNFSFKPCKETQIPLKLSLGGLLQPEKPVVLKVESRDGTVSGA
Experiment: CYP3A4 MBI and enzyme inactivation clearance evaluation
Format: in vitro ADME
Settings: liver microsomes, probe midazolam or testosterone; human liver microsome
Binary call on microsomal CLint: TRUE from 0.3 µL/min/mg upward, FALSE beneath that.

>  <MOLECULE>
COc1cncc(OC[C@@]2(F)CCNC2)c1-c1cc(Nc2cnc(C#N)cn2)n[nH]1 [Example 22]

>  <CATEGORY>
TRUE

$$$$
>  <MOLECULE>
COc1cncc(OC[C@@H]2CNCCO2)c1-c1cc(Nc2cnc(C#N)cn2)n[nH]1 (stereo in doubt) [Example 12]

>  <CATEGORY>
FALSE

$$$$
>  <MOLECULE>
COc1cncc(OC[C@H]2CNCCO2)c1-c1cc(Nc2cnc(C#N)cn2)n[nH]1 (stereo in doubt) [Example 13]

>  <CATEGORY>
TRUE

$$$$
>  <MOLECULE>
COc1cncc(OC[C@]2(F)CCNC2)c1-c1cc(Nc2cnc(C#N)cn2)n[nH]1 [Example 20]

>  <CATEGORY>
TRUE

$$$$
>  <MOLECULE>
COc1cccc(OCCCN)c1-c1cc(Nc2cnc(C#N)cn2)n[nH]1 [Prexasertib, reference compound]

>  <CATEGORY>
FALSE

$$$$
>  <MOLECULE>
COc1cncc(OC[C@@H](F)CN)c1-c1cc(Nc2cnc(C#N)cn2)n[nH]1 [Example 29]

>  <CATEGORY>
FALSE

$$$$
